Here's what we have: Kd numbers for Genome polyprotein (dengue virus type 2, UniProt P12823).
EXPERIMENTAL_ENDPOINT: Kd (µM)

INSERT INTO results (cpd_smiles, experimental_endpoint, reported_measurement) VALUES
  ('N#C/C(=C\c1cn(Cc2ccccc2)c2ccccc12)C(=O)Nc1nnc(C(F)(F)F)s1', 'Kd', 9.27),
  ('N#C/C(=C\c1cn(Cc2ccccc2)c2ccccc12)C(=O)Nc1nnc(SCc2ccccc2)s1', 'Kd', 3.59);

* * *

TESTED_SYSTEM: Genome polyprotein (dengue virus type 2)
EXPERIMENT_SUMMARY: Inhibition of Dengue virus 2 NS2B/NS3 protease using Bz-Nle-Lys-Arg-Arg-AMC as substrate preincubated at 20 uM for 30 mins before substrate addition by fluorescence assay
// reported inhibition per item
EXPERIMENTAL_ENDPOINT: inhibition (%)

INSERT INTO assay_data (cpd_smiles, tested_system, reported_measurement) VALUES
  ('N#C/C(=C\c1cn(Cc2ccc(F)cc2)c2ccccc12)C(=O)Nc1nnc(SCc2ccccc2)s1', 'Genome polyprotein (dengue virus type 2)', 86.5),
  ('N#C/C(=C\c1cn(Cc2ccccc2F)c2ccccc12)C(=O)Nc1nnc(SCc2ccccc2)s1', 'Genome polyprotein (dengue virus type 2)', 88.9),
  ('N#C/C(=C\c1cn(Cc2ccccc2)c2ccccc12)C(=O)Nc1nnc(SCc2ccccc2Cl)s1', 'Genome polyprotein (dengue virus type 2)', 63.5),
  ('N#C/C(=C\c1cn(Cc2ccccc2)c2ccccc12)C(=O)Nc1nnc(C(F)(F)F)s1', 'Genome polyprotein (dengue virus type 2)', 76),
  ('N#C/C(=C\c1cn(Cc2ccccc2)c2ccccc12)C(=O)Nc1nnc(SCc2ccc(F)cc2)s1', 'Genome polyprotein (dengue virus type 2)', 83.4),
  ('N#C/C(=C\c1cn(Cc2ccccc2)c2ccccc12)C(=O)Nc1nnc(SCc2ccc(Cl)cc2)s1', 'Genome polyprotein (dengue virus type 2)', 63.4),
  ('N#C/C(=C\c1cn(Cc2ccccc2)c2ccccc12)C(=O)Nc1nnc(SCc2cccc3ccccc23)s1', 'Genome polyprotein (dengue virus type 2)', 50),
  ('N=C1/C(=C/c2cn(Cc3ccccc3)c3ccccc23)C(=O)N=C2SC(SCc3ccccc3)=NN12', 'Genome polyprotein (dengue virus type 2)', 72),
  ('COc1ccc(CSc2nnc(NC(=O)/C(C#N)=C/c3cn(Cc4ccccc4)c4ccccc34)s2)cc1', 'Genome polyprotein (dengue virus type 2)', 76.3);
